Value source: patent US20250108048A1

target: hSTING-R232 (Homo sapiens, UniProt Q86WV6, H232R); construct: host or cells: THP1-Dual KI-hSTING-R232 (from THP1-Dual KO-STING); assay: THP1-Dual KI-hSTING-R232 reporter assay (IRF pathway, secreted Lucia luciferase); type: cell-based; conditions: THP1-Dual KI-hSTING-R232 cells, 24 hours; read-out: Reporter assay EC50 (nM) THP-1-R232
Sequence (Q86WV6 whole entry H232R): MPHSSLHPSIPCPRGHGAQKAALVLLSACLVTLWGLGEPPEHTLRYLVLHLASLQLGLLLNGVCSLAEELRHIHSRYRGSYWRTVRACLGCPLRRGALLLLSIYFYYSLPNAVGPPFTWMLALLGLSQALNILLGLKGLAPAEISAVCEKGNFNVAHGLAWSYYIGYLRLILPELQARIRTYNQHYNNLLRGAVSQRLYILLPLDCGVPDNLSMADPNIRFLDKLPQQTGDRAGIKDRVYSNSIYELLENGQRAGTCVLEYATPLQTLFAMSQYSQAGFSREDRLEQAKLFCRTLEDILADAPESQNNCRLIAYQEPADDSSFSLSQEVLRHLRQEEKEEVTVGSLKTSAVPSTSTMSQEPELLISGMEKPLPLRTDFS
Reported EC50 is given for each of the following compounds.

Example entries and their recorded answers appear below.
[[record]]
chemical_string = "CCc1nc(C)oc1C(=O)Nc1nc2cc(C(N)=O)cc(OCCCN3CC4(CNCCO4)C3)c2n1C/C=C/Cn1c(NC(=O)c2cc(C)nn2CC)nc2cc(C(N)=O)cnc21"
value_reported = "≤ 50 nM"

[[record]]
chemical_string = "CCn1nc(C)cc1C(=O)Nc1nc2cc(C(N)=O)ccc2n1C/C=C/Cn1c(NC(=O)c2cc(C)nn2CC)nc2cc(C(N)=O)cc(OCCCN3CC4(C3)CN(C(=O)CON)CCO4)c21"
value_reported = "> 150 nM"

[[record]]
chemical_string = "CCn1nc(C)cc1C(=O)Nc1nc2cc(C(N)=O)cc(OC)c2n1C/C=C/Cn1c(NC(=O)Cc2cnc(C)o2)nc2cc(C(N)=O)cc(OCCCN3CC4(CNCCO4)C3)c21"
value_reported = "> 150 nM"

[[record]]
chemical_string = "CCn1nc(C)cc1C(=O)Nc1nc2cc(C(N)=O)cc(OC)c2n1C/C=C/Cn1c(NC(=O)c2cn(C)nc2C2CNC2)nc2cc(C(N)=O)cc(OCCCN3CC4(CCCCO4)C3)c21"
value_reported = "> 150 nM"

[[record]]
chemical_string = "CCc1nc(C)oc1C(=O)Nc1nc2cc(C(N)=O)cc(OCCCN3CC4(C3)CN(C(=O)[C@H](CC(C)C)NC)CCO4)c2n1C/C=C/Cn1c(NC(=O)c2cc(C)nn2CC)nc2cc(C(N)=O)cc(OC)c21"
value_reported = "≤ 50 nM"

[[record]]
chemical_string = "CCn1nc(C)cc1C(=O)Nc1nc2cc(C(N)=O)cc(OC)c2n1C/C=C/Cn1c(NC(=O)c2cc(C)nn2C)nc2cc(C(N)=O)cc(OCCCN3CC4(CNCCO4)C3)c21"
value_reported = "≤ 50 nM"


Prompt: Could you tell me which EC50 is on file for CCc1nc(C)sc1C(=O)Nc1nc2cc(C(N)=O)cc(OC)c2n1C/C=C/Cn1c(NC(=O)c2sc(C)nc2CC)nc2cc(C(N)=O)cc(OCCCN3CCC(c4nnc5n4CCNC5)CC3)c21 ?
Completion: ≤ 50 nM

Prompt: Please answer likewise for CCc1nc(C)oc1C(=O)Nc1nc2cc(C(N)=O)cc3c2n1C/C=C/Cn1c(NC(=O)c2cc(C)nn2CC)nc2cc(C(N)=O)cc(c21)OCC1(CNC1)CO3
Completion: ≤ 50 nM

Prompt: Likewise for CCc1nc(C)oc1C(=O)Nc1nc2cc(C(N)=O)cc(OCCCN3CC4(CNCCO4)C3)c2n1C/C=C/Cn1c(NC(=O)c2cc(C)nn2CC)nc2cc(C(N)=O)cc(OC)c21 ?
Completion: ≤ 50 nM

Prompt: Also CCn1nc(C)cc1C(=O)Nc1nc2cc(C(N)=O)cc(OC)c2n1C/C=C/Cn1c(NC(=O)C23CCC(C)(CC2)CC3)nc2cc(C(N)=O)cc(OCCCN3CC4(CNCCO4)C3)c21 ?
Completion: > 150 nM
